Recorded growth inhibition, one value per entry.
assay: NCI Yeast Anticancer Drug Screen. Data for the rad50 strain (AID 155);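 further: 0% = growth of vehicle-only cultures of the same strain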; settings: S. cerevisiae rad50 strain growth inhibition; at 50.0 µM; hits give high values
About 79,000 compounds went through this panel and 15% of them were active in at least one assay; those are over-represented in the sample as a whole. Where a SMILES comes first, the peptide text is derived from it. [ ]: non-standard residue; d: D form. The star is where a group is joined. Cbz = O=C(OCc1ccccc1)*; Nva = CCC[CH](N)C(=O)O
propertyMeasured: growth inhibition (%)

[[record]]
molecule = "O=C1OCCOCCOCCOCCOCCOCCOC(=O)c2cccc1n2"
propertymeasured = "growth inhibition"
endpointvalue = 28.9

[[record]]
molecule = "COC1=CC(=O)C(c2cc(O)c(OC)cc2O)=CC1=O"
propertymeasured = "growth inhibition"
endpointvalue = -0.15

[[record]]
molecule = "CC(=O)OC1/C=C(/C)CCC2OC2(C)CC2OC(=O)C3(CC3)C12 (stereo not given)"
propertymeasured = "growth inhibition"
endpointvalue = 0.85

[[record]]
molecule = "CC(C)(C)C(OC(=O)Cc1ccccc1)c1ccc2c(c1)OCO2 (stereo not given)"
propertymeasured = "growth inhibition"
endpointvalue = -9.05

[[record]]
molecule = "CC1C=CCC2C(=O)OC(=O)C12 (stereo not given)"
propertymeasured = "growth inhibition"
endpointvalue = 10.3

[[record]]
molecule = "COc1ccc(CNc2nc3ccc(C(F)(F)F)cc3nc2-c2ccccc2)cc1OC"
propertymeasured = "growth inhibition"
endpointvalue = -33.8

[[record]]
molecule = "C/C(=N/NC(N)=O)C1=CCCC1"
propertymeasured = "growth inhibition"
endpointvalue = 2.9

[[record]]
molecule = "CCCC(NC(=O)OCc1ccccc1)C(=O)NC(C(=O)O)C(C)CC (stereo not given) (Cbz-[Nva]-Ile-OH; configuration not given here)"
propertymeasured = "growth inhibition"
endpointvalue = 26.3

[[record]]
molecule = "CCOC(=O)/C(C#N)=C\\N(C)C"
propertymeasured = "growth inhibition"
endpointvalue = 8.75

[[record]]
molecule = "C/C(=N\\NC(=S)N1CCC(C)CC1)c1nccnc1C"
propertymeasured = "growth inhibition"
endpointvalue = 6.1

[[record]]
molecule = "O=CNC1CCCCC1c1ccc(C2CCCCC2NC=O)cc1 (stereo not given)"
propertymeasured = "growth inhibition"
endpointvalue = -12.1

[[record]]
molecule = "OCC1OC(n2cc3ccccc3n2)C(O)C1O (stereo not given)"
propertymeasured = "growth inhibition"
endpointvalue = 3.55

[[record]]
molecule = "CN/N=C(/Cc1occc(=O)c1O)C(=O)Nc1ccc(C)c(C)c1"
propertymeasured = "growth inhibition"
endpointvalue = 15.4

[[record]]
molecule = "OCCN(Cc1ccccc1)C(c1ccccc1)C(O)c1ccccc1 (stereo not given)"
propertymeasured = "growth inhibition"
endpointvalue = -2.8

[[record]]
molecule = "CCCCCCCC(=O)Nc1nnc(SCCCCCCCCCCSc2nnc(NC(=O)CCCCCCC)s2)s1"
propertymeasured = "growth inhibition"
endpointvalue = -33.5

[[record]]
molecule = "COc1cccc(C2CC(c3cc(OC)c(OC)c(OC)c3)CC(c3cccc(OC)c3)N2)c1 (stereo not given)"
propertymeasured = "growth inhibition"
endpointvalue = -5.4

[[record]]
molecule = "CCOC(=O)CC1(C)SCCN1C(N)=O (stereo not given)"
propertymeasured = "growth inhibition"
endpointvalue = 2.25

[[record]]
molecule = "O=C(O)c1ccc(B(O)O)cc1[N+](=O)[O-]"
propertymeasured = "growth inhibition"
endpointvalue = 11.8

[[record]]
molecule = "CC/C(Cl)=N\\OC(=O)Nc1ccc(C#N)cc1"
propertymeasured = "growth inhibition"
endpointvalue = -44.8

[[record]]
molecule = "CCOC(=O)c1sc(N)nc1C"
propertymeasured = "growth inhibition"
endpointvalue = -17.8

[[record]]
molecule = "COC(=O)C(C(C[N+](=O)[O-])c1ccco1)=P(c1ccccc1)(c1ccccc1)c1ccccc1 (stereo not given)"
propertymeasured = "growth inhibition"
endpointvalue = 89.5

[[record]]
molecule = "O=C(O)C(CSC(c1ccccc1)(c1ccccc1)c1ccccc1)Nc1ccccc1[N+](=O)[O-] (stereo not given)"
propertymeasured = "growth inhibition"
endpointvalue = 99

[[record]]
molecule = "O=c1[nH][nH]c(=O)c2c1nc(SCCc1ccccc1)n2Cc1ccccc1"
propertymeasured = "growth inhibition"
endpointvalue = 26.4

[[record]]
molecule = "CCOC(=O)NNC(C)(C)C"
propertymeasured = "growth inhibition"
endpointvalue = 4.15

[[record]]
molecule = "CCCCCCCCCCCC(=O)N(C)CCS(=O)(=O)O"
propertymeasured = "growth inhibition"
endpointvalue = 6.2


###

Recorded growth inhibition, one value per entry.
test: NCI Yeast Anticancer Drug Screen. Data for the mec2-1 strain (AID 157); settings: S. cerevisiae mec2-1 strain, at 50.0 µM, hits give high values
The panel holds about 79,000 compounds, 15% with a hit somewhere; the sample as a whole holds those more often. Calls of active or inactive are those of the source. Rule as the data show it: active = growth inhibition above about 70%; inactive = the rest.
propertyMeasured: growth inhibition

[[record]]
compound = "NC(=O)Oc1ccc(Cc2ccccc2)cc1"
endpointvalue = "-43.2% (inactive)"

[[record]]
compound = "CN=C1NC(C)(C)C2CCC(C)(CC2)S1"
endpointvalue = "14.9% (inactive)"

[[record]]
compound = "CN1CCC(n2[nH]c(-c3ccccc3)c(Cc3ccccc3)c2=O)CC1"
endpointvalue = "-40.6% (inactive)"

[[record]]
compound = "COC(=O)/C(=N\\NC(N)=O)C(C#N)c1ccccc1 (configuration not stated)"
endpointvalue = "-1.85% (inactive)"

[[record]]
compound = "CCN(CC)CCOc1ccc2ccccc2c1C(Cc1ccccc1)NCCO (configuration not stated)"
endpointvalue = "1.95% (inactive)"

[[record]]
compound = "CCNC(=O)OCCN(CCOC(=O)NCC)CCc1cccc(OC)c1OC"
endpointvalue = "6.65% (inactive)"

[[record]]
compound = "O=C(CC(C(=O)c1cccs1)c1cccs1)c1ccccc1Cl (configuration not stated)"
endpointvalue = "-27.6% (inactive)"

[[record]]
compound = "NS(=O)(=O)c1ccc(NO)cc1"
endpointvalue = "-7.45% (inactive)"

[[record]]
compound = "COC(=O)CCc1cccnc1/C=N/O"
endpointvalue = "-31.8% (inactive)"

[[record]]
compound = "CSc1cc(Cl)c(C)cc1S(=O)(=O)NC(=O)NNc1cccc(C(F)(F)F)n1"
endpointvalue = "5.25% (inactive)"

[[record]]
compound = "CC1=NN(c2ccccc2)C(=O)CC1"
endpointvalue = "-8.8% (inactive)"

[[record]]
compound = "CC/C(C)=N/NS(=O)(=O)c1ccc(C)cc1"
endpointvalue = "13.2% (inactive)"

[[record]]
compound = "C=CCNC(=S)Nc1ccccc1"
endpointvalue = "-9.95% (inactive)"

[[record]]
compound = "CC1(C)CC(=O)C2=C(SC3=C(C2)C(=O)CC(C)(C)S3)S1"
endpointvalue = "-2.5% (inactive)"

[[record]]
compound = "Cc1nc2ccc(Cl)cc2c(Cl)c1CCCl"
endpointvalue = "6.5% (inactive)"

[[record]]
compound = "N#Cc1cnn(-c2ccccc2)c1N"
endpointvalue = "-7.4% (inactive)"

[[record]]
compound = "Cc1ccc(NC(=O)/C=C2\\CONC(c3ccccc3)=N2)cc1"
endpointvalue = "-5.7% (inactive)"

[[record]]
compound = "COc1ccccc1/C=C1/Sc2scc(CC(=O)Nc3ccccc3)[n+]2C1=O"
endpointvalue = "4% (inactive)"

[[record]]
compound = "COC(=O)c1cccc2cnccc12"
endpointvalue = "-5.7% (inactive)"

[[record]]
compound = "Cc1cc(C)n2ncc(Br)c2n1"
endpointvalue = "13.1% (inactive)"

[[record]]
compound = "CCSc1cc(N)ncn1"
endpointvalue = "-18.6% (inactive)"

[[record]]
compound = "O=C(O)COc1ccc(F)c(F)c1F"
endpointvalue = "4.5% (inactive)"


###

assay: NCI Yeast Anticancer Drug Screen. Data for the rad50 strain (AID 155);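 further: 0% = growth of vehicle-only cultures of the same strain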; settings: S. cerevisiae rad50 strain growth inhibition; at 50.0 µM; hits give high values
This is part of a sample that, as a whole, favours compounds with a hit. Of some 79,000 tested, about 15% had one in any assay.
propertyMeasured: growth inhibition (%)

[[record]]
compound = "CC(=O)N(c1ccc(F)c(F)c1)c1ccc(F)c(F)c1"
propertymeasured = "growth inhibition"
endpointunit = "%"
endpointvalue = -18.3

[[record]]
compound = "CC(=O)NC1=CC(=O)c2cc(C)cc(O)c2C1=O"
propertymeasured = "growth inhibition"
endpointunit = "%"
endpointvalue = 23.3

[[record]]
compound = "Nc1nc(-c2ccccc2)[nH]c(=O)n1"
propertymeasured = "growth inhibition"
endpointunit = "%"
endpointvalue = -3.3

[[record]]
compound = "FC(F)(F)c1ccc2c(c1)N(CCCN1CCN(CCN3CCCCC3)CC1)c1ccccc1S2"
propertymeasured = "growth inhibition"
endpointunit = "%"
endpointvalue = 88.9

[[record]]
compound = "C#CCN(C)Cc1cc(OC)c(OC)c(OC)c1"
propertymeasured = "growth inhibition"
endpointunit = "%"
endpointvalue = -43.2

[[record]]
compound = "CCCCOC(=O)C12CCCCC1O2 (stereo unspecified)"
propertymeasured = "growth inhibition"
endpointunit = "%"
endpointvalue = -29.1

[[record]]
compound = "O=C1c2ccccc2C(=O)c2c(O)cc([N+](=O)[O-])cc21"
propertymeasured = "growth inhibition"
endpointunit = "%"
endpointvalue = 18.2

[[record]]
compound = "O=C1c2ccccc2C(=O)N1CNc1cccc(NCN2C(=O)c3ccccc3C2=O)c1"
propertymeasured = "growth inhibition"
endpointunit = "%"
endpointvalue = -3.9

[[record]]
compound = "NC(=O)C(CC(=O)O)NC(=O)c1ccccc1 (stereo unspecified)"
propertymeasured = "growth inhibition"
endpointunit = "%"
endpointvalue = 8.05

[[record]]
compound = "CC(C)NCC(=O)CCCBr"
propertymeasured = "growth inhibition"
endpointunit = "%"
endpointvalue = -5.15

[[record]]
compound = "Cc1cc(C)n(-c2ccnc(-n3nc(C)cc3C)n2)n1"
propertymeasured = "growth inhibition"
endpointunit = "%"
endpointvalue = 22

[[record]]
compound = "CN(C)N1C(=O)c2ccccc2NC1c1ccccc1 (stereo unspecified)"
propertymeasured = "growth inhibition"
endpointunit = "%"
endpointvalue = -19.2

[[record]]
compound = "CC[N+](CC)(CC)CCC[n+]1ccc(/C=N\\O)cc1"
propertymeasured = "growth inhibition"
endpointunit = "%"
endpointvalue = 3.1

[[record]]
compound = "Nc1ccnn2c(-c3ccccc3)nnc12"
propertymeasured = "growth inhibition"
endpointunit = "%"
endpointvalue = -0.55

[[record]]
compound = "Cc1ccc(N2C(=O)/C(=C/c3ccc(N(CCC#N)CCC#N)cc3)N=C2COc2ccc(Cl)cc2Cl)cc1"
propertymeasured = "growth inhibition"
endpointunit = "%"
endpointvalue = -0.2

[[record]]
compound = "COc1cc(N=Nc2c(Cl)cc([N+](=O)[O-])cc2Cl)c(OC)cc1N=Nc1ccc(N)nc1N"
propertymeasured = "growth inhibition"
endpointunit = "%"
endpointvalue = 23.4

[[record]]
compound = "COC(=O)c1ccc(SCCC(=O)CNc2nc(N)nc(N)c2[N+](=O)[O-])cc1"
propertymeasured = "growth inhibition"
endpointunit = "%"
endpointvalue = 32.1

[[record]]
compound = "O=[N+]([O-])C1C2CCC(C2)C1c1ccccc1 (stereo unspecified)"
propertymeasured = "growth inhibition"
endpointunit = "%"
endpointvalue = 9.55

[[record]]
compound = "CC1CCC(=O)NCCCCC(=O)N1 (stereo unspecified)"
propertymeasured = "growth inhibition"
endpointunit = "%"
endpointvalue = 22.9

[[record]]
compound = "CCCCCCCCCCCCCCCC[N+](C)(C)CCNC(C)=O"
propertymeasured = "growth inhibition"
endpointunit = "%"
endpointvalue = 99.2

[[record]]
compound = "Clc1ccc(Nc2nc3ccccc3nc2-c2cccs2)cc1Cl"
propertymeasured = "growth inhibition"
endpointunit = "%"
endpointvalue = -13.4

[[record]]
compound = "O=C(O)CCSC1=NCCN1"
propertymeasured = "growth inhibition"
endpointunit = "%"
endpointvalue = -32.8

[[record]]
compound = "O=C(O)CCc1nc2ccccc2c(=O)n1Cc1ccccc1"
propertymeasured = "growth inhibition"
endpointunit = "%"
endpointvalue = 11.1

[[record]]
compound = "O=C1CC2CCCCC2=C1O (stereo unspecified)"
propertymeasured = "growth inhibition"
endpointunit = "%"
endpointvalue = 18.4

[[record]]
compound = "CC(O)C(O)C(O)CO (stereo unspecified)"
propertymeasured = "growth inhibition"
endpointunit = "%"
endpointvalue = 6.1

[[record]]
compound = "CN(N=O)C(=O)NC(C=O)C(O)C(O)C(O)CO (stereo unspecified)"
propertymeasured = "growth inhibition"
endpointunit = "%"
endpointvalue = 5.25

[[record]]
compound = "CC1CCC(C(C)C)C(OS(=O)(=O)c2ccccc2)C1 (stereo unspecified)"
propertymeasured = "growth inhibition"
endpointunit = "%"
endpointvalue = 0.1

[[record]]
compound = "CCN(CC)Cc1cc(N=Nc2cccc3ccccc23)c2ccccc2c1O"
propertymeasured = "growth inhibition"
endpointunit = "%"
endpointvalue = 31.6

[[record]]
compound = "Cc1ccc(S(=O)(=O)/N=C2\\CCN(S(=O)(=O)c3ccccc3)N2S(=O)(=O)c2ccc(C)cc2)cc1"
propertymeasured = "growth inhibition"
endpointunit = "%"
endpointvalue = 17.6

[[record]]
compound = "Cc1c(O)c2cccc(-c3ccccc3)c2oc1=O"
propertymeasured = "growth inhibition"
endpointunit = "%"
endpointvalue = 5.8

[[record]]
compound = "CC(=O)OC1(C)N=NC2(CCCCC2)O1 (stereo unspecified)"
propertymeasured = "growth inhibition"
endpointunit = "%"
endpointvalue = 3.45

